Target: Tyrosine-protein kinase SYK (Homo sapiens) (UniProt P43405)
Details: at 1 µM
Description: GSK_PKIS: SYK mean inhibition at 1 uM [Nanosyn]
VALUE_KIND: inhibition (%)
Write it as a number; the unit % goes unstated.

1) COc1cccc(-n2ncc3c(N/N=C/c4ccc(S(C)(=O)=O)cc4)ncnc32)c1 -1.66
2) COc1cc2ncnc(Nc3ccc(C)c(O)c3)c2cc1OC 0.27
3) NS(=O)(=O)c1ccc(Nc2cc(-c3cccc(O)c3)n[nH]2)cc1 -0.51
4) Nc1nccc(-c2c(-c3ccc(F)cc3)ncn2CCCN2CCOCC2)n1 -0.03

Entry "Cc1ccc(O)cc1Nc1ccnc2ccc(S(C)(=O)=O)cc12" : reported inhibition = ?
-3.99

Entry "CN1CCN(C(=O)c2ccc(NC(=O)Nc3ccc(N(C)c4ccnc(Nc5ccc(CS(C)(=O)=O)cc5)n4)cc3)cc2)CC1" : reported inhibition = ?
-2.49

Entry "NS(=O)(=O)c1ccc(N/N=C2\C(=O)Nc3ccc(Cl)cc32)cc1" : reported inhibition = ?
-3.16

Entry "COc1cc(/C=N/Nc2ncnc3c2cnn3C(C)C)ccc1O" : reported inhibition = ?
35.4

Entry "COc1cc2ncnc(Nc3ccc4c(cnn4Cc4ccccc4)c3)c2cc1OC" : reported inhibition = ?
0.48

Entry "Cc1nc(-c2ccccc2)n2nc(NCCCN3CCOCC3)ncc12" : reported inhibition = ?
3.52

Entry "CC(C)c1ccc2c(c1)NC(=O)/C2=N/Nc1ccc(S(N)(=O)=O)cc1" : reported inhibition = ?
1.53

====

Target: Cyclin-dependent kinase 2 (Homo sapiens);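 also: mean inhibition of CDK2 in complex with cyclin E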
Details: at 0.1 µM
Assign satisfied to entries whose inhibition meets or exceeds 4%; assign not satisfied to the rest.

1. Oc1cccc(-c2nc(-c3ccccc3)[nH]c2-c2ccncc2)c1 satisfied
2. Cc1cc(Cl)cc2c1NC(=O)C2=NNc1ccc(S(N)(=O)=O)cc1 not satisfied
3. Cc1cc(O)cc(C)c1/C=C/c1cncc(C(=O)N(C)C)c1 not satisfied
4. CCS(=O)(=O)c1ccc(OC)c(Nc2ncc(-c3cccc(OC)c3)o2)c1 not satisfied
5. c1ccc(Cc2nc3ccc(Nc4ncnc5ccccc45)cc3[nH]2)cc1 satisfied
6. CCOc1nccc2c1nc(-c1nonc1N)n2CC not satisfied
7. CN(c1ccc(NC(=O)Nc2ccc(OC(F)(F)F)cc2)cc1)c1ccnc(Nc2cccc(S(N)(=O)=O)c2)n1 not satisfied
8. OCc1ccc(-c2nc(-c3ccccn3)c(-c3ccc4c(c3)OCO4)[nH]2)cc1 not satisfied
9. CCn1c(-c2nonc2N)nc2c(C#CC(C)(C)O)nc(OCCNC)cc21 not satisfied

Next:
Determine whether this molecule has inhibition no lower than 4%: "COc1cc2ncnc(Nc3ccc4c(cnn4Cc4ccccc4)c3)c2cc1OC"
satisfied

====

Each entry below carries its reported inhibition.
Molecular target: Dual specificity tyrosine-phosphorylation-regulated kinase 1A (Homo sapiens) (UniProt Q13627)
Settings: at 1 µM
Description: GSK_PKIS: DYRK1A mean inhibition at 1 uM [Nanosyn]
Give the number first and the unit second.

COMPOUND	VALUE_KIND	ASSAY_VALUE
NS(=O)(=O)c1cccc(Nc2cc(-c3ccc(F)cc3)n[nH]2)c1	inhibition	4.42%
Cc1cc(O)cc(C)c1/C=C/c1cncc(C(=O)N(C)C)c1	inhibition	3.33%
COc1cc2ncn(-c3cc(OCc4ccccc4S(C)(=O)=O)c(C#N)s3)c2cc1OC	inhibition	19.3%
CCOc1nccc2c1nc(-c1nonc1N)n2CC	inhibition	3.41%
Nc1ccc(C#Cc2cncnc2Nc2ccc(OCc3cccc(F)c3)c(Cl)c2)cc1	inhibition	2.99%

Entry "COc1cccc(-n2ncc3c(N/N=C/c4ccc(S(C)(=O)=O)cc4)ncnc32)c1" : reported inhibition = ?
64.3%

Entry "COc1cc2ncnc(Nc3ccc4c(cnn4Cc4ccccc4)c3)c2cc1OC" : reported inhibition = ?
2.6%

Entry "Cc1ccc2c(-c3ccnc(Nc4ccc5c(c4)OCCO5)n3)c(-c3ccc(C(F)(F)F)cc3)nn2n1" : reported inhibition = ?
2%

Entry "NS(=O)(=O)c1ccc(-c2cc3ccncc3cc2OCc2ccccc2)cc1" : reported inhibition = ?
4.84%

====

Target: PAS domain-containing serine/threonine-protein kinase (Homo sapiens)
Settings: at 0.1 µM
Description: GSK_PKIS: PASK mean inhibition at 0.1 uM [Nanosyn]
Each entry below carries its reported inhibition.
Write it as a number; the unit % goes unstated.

Recorded inhibition, per entry:
1) COc1cc2ncnc(Nc3ccc(C)c(O)c3)c2cc1OC -0.16
2) CCn1c(-c2nonc2N)nc2c(C#CC(C)(C)O)nc(OCCNC)cc21 -1.05
3) COC(=O)Nc1nc2cc(Oc3ccc(NC(=O)Nc4cccc(Br)c4)cc3)ccc2[nH]1 0.17
4) CN1CCN(C(=O)c2ccc(NC(=O)Nc3ccc(N(C)c4ccnc(Nc5ccc(CS(C)(=O)=O)cc5)n4)cc3)cc2)CC1 -0.3
5) Cc1cc(O)cc(C)c1/C=C/c1cncc(C(=O)N(C)C)c1 0.83

# get_value(readout= inhibition, system= PAS domain-containing serine/threonine-protein kinase (Homo sapiens)) for "O=C1Nc2ccccc2/C1=C/Nc1ccc2[nH]c(=O)[nH]c2c1"
12.4

# get_value(readout= inhibition, system= PAS domain-containing serine/threonine-protein kinase (Homo sapiens)) for "FC(F)(F)c1ccc(-c2nn3ncccc3c2-c2ccnc(Nc3ccc4c(c3)OCCO4)n2)cc1"
6.37

# get_value(readout= inhibition, system= PAS domain-containing serine/threonine-protein kinase (Homo sapiens)) for "Cc1ccc(NC(=O)CC2CC2)cc1-c1ccc(C(=O)NCC2CC2)cc1"
-0.28

# get_value(readout= inhibition, system= PAS domain-containing serine/threonine-protein kinase (Homo sapiens)) for "COc1ccc(-c2nn3ncccc3c2-c2ccnc(Nc3cccc(C(F)(F)F)c3)n2)cc1"
0.84

====

Each entry below carries its reported inhibition.
Target: Casein kinase I isoform gamma-3 (Homo sapiens) (UniProt Q9Y6M4);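 also: reported value is the mean percent inhibition of the kinase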
Sequence (Q9Y6M4 whole entry, looked up, canonical isoform): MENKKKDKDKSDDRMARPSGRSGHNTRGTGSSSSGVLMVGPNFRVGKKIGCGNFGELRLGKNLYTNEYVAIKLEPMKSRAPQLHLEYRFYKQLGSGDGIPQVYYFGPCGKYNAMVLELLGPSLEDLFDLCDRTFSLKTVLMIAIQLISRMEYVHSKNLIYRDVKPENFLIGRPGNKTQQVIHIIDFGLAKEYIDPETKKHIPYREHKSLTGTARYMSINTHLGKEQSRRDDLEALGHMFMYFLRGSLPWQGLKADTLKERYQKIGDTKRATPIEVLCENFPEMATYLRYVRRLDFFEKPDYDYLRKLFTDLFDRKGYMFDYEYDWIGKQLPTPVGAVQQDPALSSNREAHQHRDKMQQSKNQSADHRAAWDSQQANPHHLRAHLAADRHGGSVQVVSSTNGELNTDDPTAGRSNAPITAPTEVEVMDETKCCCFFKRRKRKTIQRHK
Details: at 0.1 µM
Write it as a number; the unit % goes unstated.

Recorded inhibition, per entry:
1) Oc1cccc(-c2nc(-c3ccccc3)[nH]c2-c2ccncc2)c1 2.62
2) N#Cc1c(NC(=O)c2ccccc2F)sc2c1CCCC2 -2.12
3) Nc1nccc(-c2c(-c3ccc(F)cc3)ncn2CCCN2CCOCC2)n1 3.31
4) NS(=O)(=O)c1ccc(N/N=C2\C(=O)Nc3ccc(Cl)cc32)cc1 1.35

Entry "NC(=O)c1cccc(Nc2nccc(Nc3cccc(F)c3)n2)c1" : reported inhibition = ?
0.99

Entry "NC(=O)c1sc(-n2cnc3ccccc32)cc1OCc1ccccc1Br" : reported inhibition = ?
2.52

Entry "COc1ccc2ncnc(Nc3ccc(OCc4ccccc4)cc3)c2c1" : reported inhibition = ?
-0.66

Entry "FC(F)(F)c1ccc(-c2nn3ncccc3c2-c2ccnc(Nc3ccc4c(c3)OCCO4)n2)cc1" : reported inhibition = ?
0.18

Entry "Nc1nccc(-c2c(-c3ccc(F)cc3)nn3cc(C(F)(F)F)ccc23)n1" : reported inhibition = ?
0.79

Entry "CN(C)CCCn1c(-c2nonc2N)nc2cnccc21" : reported inhibition = ?
1.5

Entry "NS(=O)(=O)c1cccc(Nc2cc(-c3ccc(F)cc3)n[nH]2)c1" : reported inhibition = ?
1.83

====

Each entry below carries its reported inhibition.
System: Platelet-derived growth factor receptor alpha (Homo sapiens), P16234 [D842V]
Sequence (P16234 whole entry D842V): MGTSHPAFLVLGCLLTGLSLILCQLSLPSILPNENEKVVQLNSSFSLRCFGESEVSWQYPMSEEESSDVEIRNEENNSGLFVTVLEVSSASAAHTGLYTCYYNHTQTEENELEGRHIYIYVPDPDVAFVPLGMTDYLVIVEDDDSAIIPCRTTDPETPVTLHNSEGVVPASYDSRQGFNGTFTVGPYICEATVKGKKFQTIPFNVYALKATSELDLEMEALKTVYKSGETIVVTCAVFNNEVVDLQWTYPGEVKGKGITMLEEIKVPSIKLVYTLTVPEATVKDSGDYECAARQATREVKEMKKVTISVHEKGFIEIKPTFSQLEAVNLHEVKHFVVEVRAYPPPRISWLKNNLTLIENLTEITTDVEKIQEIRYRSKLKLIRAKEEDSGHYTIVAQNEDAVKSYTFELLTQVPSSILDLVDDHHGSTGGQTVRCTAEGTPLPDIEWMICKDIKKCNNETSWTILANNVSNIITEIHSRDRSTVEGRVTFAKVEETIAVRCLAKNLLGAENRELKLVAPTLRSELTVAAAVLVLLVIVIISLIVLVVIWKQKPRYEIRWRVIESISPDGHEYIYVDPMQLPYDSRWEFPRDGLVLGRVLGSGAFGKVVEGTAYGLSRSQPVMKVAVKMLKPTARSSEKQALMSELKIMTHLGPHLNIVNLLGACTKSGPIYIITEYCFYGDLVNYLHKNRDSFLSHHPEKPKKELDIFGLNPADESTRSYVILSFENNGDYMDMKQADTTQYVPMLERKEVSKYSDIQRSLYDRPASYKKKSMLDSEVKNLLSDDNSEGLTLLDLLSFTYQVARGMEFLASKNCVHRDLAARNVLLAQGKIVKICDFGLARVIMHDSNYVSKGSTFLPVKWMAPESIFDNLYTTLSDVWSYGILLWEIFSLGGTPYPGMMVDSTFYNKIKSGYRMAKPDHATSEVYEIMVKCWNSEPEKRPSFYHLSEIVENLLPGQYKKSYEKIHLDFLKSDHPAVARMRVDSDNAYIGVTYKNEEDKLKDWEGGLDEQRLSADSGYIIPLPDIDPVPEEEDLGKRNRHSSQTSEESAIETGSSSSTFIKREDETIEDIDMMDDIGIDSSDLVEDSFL
Settings: at 0.1 µM
Write it as a number; the unit % goes unstated.

1. CC(C)c1ccc(Nc2nccc(-c3cnn4ncccc34)n2)cc1 6.98
2. NC(=O)c1cccc(Nc2nccc(Nc3cccc(F)c3)n2)c1 1.84
3. NS(=O)(=O)c1cccc(Nc2cc(-c3ccc(F)cc3)n[nH]2)c1 3.21
4. COc1cc2ncnc(Nc3ccc4c(cnn4Cc4ccccc4)c3)c2cc1OC 4
5. C[C@@H](Oc1cc(-n2cnc3ccc(OCC4CCN(C)CC4)cc32)sc1C(N)=O)c1ccccc1C(F)(F)F 18.1
6. CS(=O)(=O)Nc1cccc(-c2ccc3c(NC(=O)C4CC4)n[nH]c3c2)c1 4.33

Entry "O=C1Nc2ccccc2/C1=C/Nc1ccc2[nH]c(=O)[nH]c2c1" : reported inhibition = ?
18

Entry "O=C1Nc2ccc(-c3cccnc3)cc2C1=Cc1cc(Br)c(O)c(Br)c1" : reported inhibition = ?
4.65

Entry "CN1CCN(C(=O)c2ccc(NC(=O)Nc3ccc(N(C)c4ccnc(Nc5ccc(CS(C)(=O)=O)cc5)n4)cc3)cc2)CC1" : reported inhibition = ?
7.23

Entry "Cc1ccc(C(=O)NC2CC2)cc1-c1ccc2[nH]ncc2c1" : reported inhibition = ?
1.95

====

Biological target: Serine/threonine-protein kinase Sgk1 (Homo sapiens);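 also: mean percent inhibition of SGK1, from the GSK PKIS screening panel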
Settings: at 1 µM
VALUE_KIND: inhibition (%)
Write it as a number; the unit % goes unstated.

Recorded inhibition, per entry:
1. CCS(=O)(=O)c1ccc(OC)c(Nc2ncc(-c3cccc(OC)c3)o2)c1 2.05
2. Cc1cc(-c2ccccn2)cc(C)c1/C=C/c1cncc(-c2nn[nH]n2)c1 1.66
3. NS(=O)(=O)c1ccc(-c2cc3ccncc3cc2OCc2ccccc2)cc1 2.69
4. CN(C)c1cc2c(Nc3ccc4c(cnn4Cc4ccccc4)c3)ncnc2cn1 2.27

Entry "Cc1nc(-c2ccccc2)n2nc(NCCCN3CCOCC3)ncc12" : reported inhibition = ?
2.79

Entry "C[C@@H](Oc1cc(-n2cnc3ccc(OCC4CCN(C)CC4)cc32)sc1C(N)=O)c1ccccc1C(F)(F)F" : reported inhibition = ?
2.02

Entry "C[C@@H](Oc1cc(-n2cnc3ccc(OC[C@@H](O)CO)cc32)sc1C(N)=O)c1ccccc1Cl" : reported inhibition = ?
0.68

Entry "COC(=O)c1ccc2c(c1)C(=Cc1cc(Br)c(O)c(Br)c1)C(=O)N2" : reported inhibition = ?
5.36

Entry "ON=C1CCc2cc(-c3nc(C4CCNCC4)[nH]c3-c3ccncc3)ccc21" : reported inhibition = ?
0.87

Entry "NS(=O)(=O)c1ccc(N/N=C2\C(=O)Nc3ccc(Cl)cc32)cc1" : reported inhibition = ?
7.28
